Tgt: FLuc-C-HiBiT (firefly luciferase) (Photinus pyralis, UniProt P08659, form not given/L550V)
Sequence (P08659 2-550 L550V, form open): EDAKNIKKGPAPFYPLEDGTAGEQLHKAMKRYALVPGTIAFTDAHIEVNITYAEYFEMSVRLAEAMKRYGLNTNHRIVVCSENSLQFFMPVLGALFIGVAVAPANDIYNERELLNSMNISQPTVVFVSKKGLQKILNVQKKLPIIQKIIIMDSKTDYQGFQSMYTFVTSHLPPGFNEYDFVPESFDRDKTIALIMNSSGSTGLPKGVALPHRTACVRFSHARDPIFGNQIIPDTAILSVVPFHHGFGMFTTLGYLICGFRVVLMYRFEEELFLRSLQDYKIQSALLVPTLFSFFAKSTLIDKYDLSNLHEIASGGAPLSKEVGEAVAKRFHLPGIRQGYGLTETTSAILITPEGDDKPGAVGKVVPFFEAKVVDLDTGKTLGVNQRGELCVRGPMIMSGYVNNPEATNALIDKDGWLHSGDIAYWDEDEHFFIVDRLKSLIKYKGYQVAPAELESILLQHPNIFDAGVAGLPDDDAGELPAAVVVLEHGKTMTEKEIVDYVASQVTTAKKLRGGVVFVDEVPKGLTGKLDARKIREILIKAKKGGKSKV
Method notes: SDR assay, FLuc-C-HiBiT
Test context: 10 nM FLuc-C-HiBiT; normalized activity; Log [Compound], M -7.82
Metric name: SDR No ATP

- Fc1ccc(-c2cn3cc(Cc4ccccc4)sc3n2)cc1: 16.4
- O=C(O)c1cccc2c1CCN2C(=O)Nc1ccc(F)cc1: 12.7
- COc1ccc(-c2nc(-c3ccc(C(=O)O)cc3)no2)cc1: 14.6
- Cc1ccc(-n2ncc3c(N4CCCCCC4)ncnc32)cc1: 14.4
- CC1CCCN(c2ncnc3c2cnn3-c2ccccc2)C1 (centres unmarked): 14.6

----------
Tgt: FLuc-C-HiBiT (firefly luciferase) (Photinus pyralis, UniProt P08659, form not given/L550V)
Method notes: Firefly luciferase (FLuc) enzymatic luminescence assay, FLuc-C-HiBiT
Assay type: biochemical
Set-up: key: % normalized; no enzyme control = 100% inhibition, DMSO = 0
Test context: sheet Figure 1g (values as in Figure 1f); normalized activity; Log [Compound], M -4.96
Metric name: FLuc Enzyme

- Fc1ccc(-c2cn3cc(Cc4ccccc4)sc3n2)cc1: -89.0
- Cc1ccc(-n2ncc3c(N4CCCCCC4)ncnc32)cc1: -95.9
- COc1ccc(-c2nc(-c3ccc(C(=O)O)cc3)no2)cc1: -95.8
- O=C(O)CCSc1nnc(-c2ccc(Cl)cc2Cl)o1: -91.0
- CNC(=O)c1cccc2c1CCN2C(=O)Nc1ccc(C)cc1: -96.8
- CC(CNC(=O)C1CCN(C(=O)c2ncn3c2COC(c2ccccc2)C3)CC1)c1ccccc1 (centres unmarked): -73.9
- CC1CCCN(c2ncnc3c2cnn3-c2ccccc2)C1 (centres unmarked): -93.0
- O=C(O)c1cccc2c1CCN2C(=O)Nc1ccc(F)cc1: -91.0

----------
Tgt: ABL1-N-HiBiT kinase domain (Homo sapiens)
Sequence (P00519 233-500): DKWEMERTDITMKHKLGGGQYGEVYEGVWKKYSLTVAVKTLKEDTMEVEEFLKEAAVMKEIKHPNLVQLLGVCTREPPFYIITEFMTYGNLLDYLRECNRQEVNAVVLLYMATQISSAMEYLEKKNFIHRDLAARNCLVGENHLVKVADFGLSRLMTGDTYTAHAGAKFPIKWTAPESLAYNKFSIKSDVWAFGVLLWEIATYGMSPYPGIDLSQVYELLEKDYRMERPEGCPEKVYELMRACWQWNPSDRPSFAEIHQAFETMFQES
Method notes: ABL1 peptide phosphorylation, Kinase-Glo Plus (KGP) assay, ABL1-N-HiBiT
Assay type: biochemical
Design: containing amino acid residues Asp233-Ser500; His10 (N); made in house; host or cells: E. coli BL21(DE3)
Test context: ABL1, Kinase-Glo Plus (KGP); heatmap data, 128 kinase inhibitors
Metric name: ABL1 KGP pIC50

* O=C(O)[C@]1(Cc2cccc(Nc3nccs3)n2)CC[C@@H](Oc2cccc(Cl)c2F)CC1 [MK-5108 (VX-689)] | 5.97
* CCOc1ccn(-c2ccc(F)cc2)c(=O)c1C(=O)Nc1ccc(Oc2ccnc(N)c2Cl)c(F)c1 [BMS-777607] | 4.97
* c1ccc(-c2oc3ncnc(NC[C@@H]4CCCO4)c3c2-c2ccccc2)cc1 [AIM-100] | 4.83
* c1ccc2c(-c3cnn4cc(-c5ccc(N6CCNCC6)cc5)cnc34)ccnc2c1 [LDN-193189] | 6.18
* C=CC(=O)N1CCC[C@@H](n2nc(-c3cccc(C(=O)Nc4ccc(C(C)C)c(C)c4)c3)c3c(N)ncnc32)C1 [PF 06465469] | 5.13
* Cc1cc(Nc2ncc3c(n2)N(C)C(=O)N(c2cc(NC(=O)c4cccc(C(F)(F)F)c4)ccc2C)C3)n(C)n1 [Pluripotin] | 6.87

----------
Tgt: FLuc-C-HiBiT (Photinus pyralis)
Construct: firefly luciferase with C-terminal HiBiT tag, E. coli expressed
Sequence (P08659 whole entry, looked up): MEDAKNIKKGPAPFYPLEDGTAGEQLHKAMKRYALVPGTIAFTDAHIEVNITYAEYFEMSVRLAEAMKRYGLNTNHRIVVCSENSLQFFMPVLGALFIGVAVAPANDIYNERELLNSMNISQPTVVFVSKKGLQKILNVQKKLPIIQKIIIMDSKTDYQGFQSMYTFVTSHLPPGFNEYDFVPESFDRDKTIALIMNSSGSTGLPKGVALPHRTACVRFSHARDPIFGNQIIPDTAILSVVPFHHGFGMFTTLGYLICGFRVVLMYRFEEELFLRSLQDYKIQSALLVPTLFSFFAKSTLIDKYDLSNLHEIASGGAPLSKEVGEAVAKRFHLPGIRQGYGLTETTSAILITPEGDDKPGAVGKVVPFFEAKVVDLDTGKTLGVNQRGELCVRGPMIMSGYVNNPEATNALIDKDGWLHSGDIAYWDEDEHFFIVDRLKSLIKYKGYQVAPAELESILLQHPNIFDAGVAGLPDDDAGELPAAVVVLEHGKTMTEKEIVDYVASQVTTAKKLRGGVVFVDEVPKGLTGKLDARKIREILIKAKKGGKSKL
Method notes: biochemical
Test context: enzyme activity, 10 uM ATP; read-out: IC50 or SDR50 (mM) / FLuc E
We begin with a simple list: items and their reported log10 of IC50.
Metric name: log10 of IC50 (log10 of the value in mM)

* CCN(CC)CCOc1ccc(-c2nc3cc(Cl)ccc3s2)cc1 | -1.60
* CCOc1cc(C(=O)Nc2ccc(-c3nc4ccccc4s3)cc2Cl)cc(OCC)c1OCC | -1.91
* Fc1ccc(-n2ncc3c(N4CCCCCC4)ncnc32)cc1 | -2.91
* CN1CCOc2nc(-c3cccc(OC(F)(F)F)c3)ncc2C1=O | -1.74
* O=C(O)C1CCc2nc(N3CCN(C(=O)C4CCC4)CC3)sc2C1 (stereo not shown) | -2.06
* O=C(NCc1ccco1)c1cccc2c1CCN2C(=O)Nc1ccc(F)cc1 | -2.95
* CN(CCc1cn[nH]c1)c1ccc(-c2nc(-c3ccccc3F)no2)cn1 | -2.50
* COc1ccc(-c2cc(N3CCCC(NC(=O)c4cccc(OC)c4)C3)[nH]n2)cc1 (stereo not shown) | -2.11
* O=C1C[C@H]2CC[C@@H](CN1)N2Cc1ccc(OCc2ccccc2)cc1 | -1.85
* COc1cccc(CN2CCNc3cc(-c4ccnc(C)c4)ncc3C2)c1 | -1.74
* COc1ccc(-c2ccc(CN3CC(C)(NC(C)=O)C3)s2)cn1 | -1.69
* Cc1ccc(NC(=O)Nc2ccc(C)n(CC(=O)NCCN3CCCC3)c2=O)cc1 | -1.95
* O=C(Nc1ccc([C@H]2OCC(=O)N(Cc3ccncc3)[C@@H]2CO)cc1)c1ccc(C(F)(F)F)cc1 | -1.95
* COc1ccc(-c2cnc3[nH]cc(CC(=O)N4CCN(c5ccccn5)CC4)c3c2)cc1 | -1.74
* CC(NC(=O)C1CCN(C(=O)c2ncn3c2COC(c2ccccc2)C3)CC1)c1ccc(F)cc1 (stereo not shown) | -2.31
* COc1cccc(Nc2ncc(-c3ccc(OC)nc3)c3c2OCC3)c1 | -1.69
* O=C(Nc1nc2c(s1)CCCC2)c1ccccc1F | -3.25
* Cc1ccc2nc(-c3ccc4nc(-c5ccc(NC(=O)c6cccc(Cl)c6)cc5)sc4c3)sc2c1[S+](=O)([O-])O | -2.35
* COc1cc(NC(=O)Nc2cccc(-c3ccc(N4CCOCC4)nn3)c2)cc(OC)c1 | -2.75
* Nc1ccc(-c2nc3ccccc3s2)cc1 | -2.75
* Cc1cn2nc(C(=O)Nc3ccc(C(=O)N4CCCC4)cc3)cc2c(=O)[nH]1 | -2.00
* COc1ccc2nc(-c3ccc(N4CCN(C(=O)OC(C)(C)C)CC4)cc3)sc2c1 | -1.85
* COc1ccccc1C(=O)Nc1onc2c1CCCC2 | -2.00
* O=C1c2cnc(-c3ccc(F)cc3F)nc2OCCN1CC1CC1 | -1.74
* CC(C)c1cccc(NC(=O)C2CCN(C(=O)c3ncn4c3COC(c3ccccc3)C4)CC2)c1 (stereo not shown) | -2.11

Origin of measurements: paper PMC12064818
